- TGT: human melanocortin-4 receptor (human, UniProt P32245 1-332)
- Sequence (P32245 whole entry): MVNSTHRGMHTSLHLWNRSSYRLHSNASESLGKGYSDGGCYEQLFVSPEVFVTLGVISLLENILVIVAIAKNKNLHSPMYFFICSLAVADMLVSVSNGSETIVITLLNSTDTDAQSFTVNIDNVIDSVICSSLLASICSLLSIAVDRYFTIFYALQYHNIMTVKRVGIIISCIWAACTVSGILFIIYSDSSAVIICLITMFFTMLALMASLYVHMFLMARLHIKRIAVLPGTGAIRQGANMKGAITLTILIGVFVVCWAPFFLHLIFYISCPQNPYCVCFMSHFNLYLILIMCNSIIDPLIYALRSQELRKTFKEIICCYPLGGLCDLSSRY
- ASSAY_NAME: cell-based or functional assay
Positions of bridges follow the written chain, without caps; N, C: chain ends. Non-standard residues stand in square brackets, D forms with d. dPhe(4-CN) = N#Cc1ccc(C[C@@H](N)C(=O)O)cc1; dPhe(3-Me) = Cc1cccc(C[C@@H](N)C(=O)O)c1; dPhe(2-F) = N[C@H](Cc1ccccc1F)C(=O)O; Orn = NCCC[C@H](N)C(=O)O
READOUT_NAME: EC50, cAMP, 0.1 ng/mL Doxycycline (nM)

binder="Ac-R[Orn]P[dPhe(2-F)]RWE-NH2 (lactam 2-7; SMILES CC(=O)N[C@@H](CCCNC(=N)N)C(=O)N[C@H]1CCCNC(=O)CC[C@@H](C(N)=O)NC(=O)[C@H](Cc2c[nH]c3ccccc23)NC(=O)[C@H](CCCNC(=N)N)NC(=O)[C@@H](Cc2ccccc2F)NC(=O)[C@@H]2CCCN2C1=O) [Ac-Arg-cyclo(Orn-Pro-D-Phe(2-F)-Arg-Trp-Glu)-NH2]" readout_name="EC50, cAMP, 0.1 ng/mL Doxycycline" recorded_result=3

[P] Ac-REQ[dPhe(4-CN)]RW[Orn]-NH2 (lactam 2-7; also: acetate salt, acetate salt form; also called Ex 46) [Ac-Arg-cyclo(Glu-Gln-D-Phe(4-CN)-Arg-Trp-Orn)-NH2]
[Q] XDQXRWK (N-terminal Ac; D-Arg 1; D-Phe(3-Cl) 4; lactam Asp 2-Lys 7; C-terminal NH2, also called No. 80) [Ac-D-Arg-cyclo(Asp-Gln-D-Phe(3-Cl)-Arg-Trp-Lys)-NH2]
Between item P and item Q , which reported EC50, cAMP, 0.1 ng/mL Doxycycline is smaller? Please reply using the label of the selected record.
P
(P: 0.666 nM, Q: 6 nM)

[A] Ac-R[Orn]N[dPhe(3-Me)]RWE-NH2 (lactam 2-7, also called No. 72) [Ac-Arg-cyclo(Orn-Asn-D-Phe(3-Me)-Arg-Trp-Glu)-NH2]
[B] RDPXRWK (N-terminal Ac; D-Phe(2-F) 4; lactam Asp 2-Lys 7; C-terminal NH2) [Ac-Arg-cyclo(Asp-Pro-D-Phe(2-F)-Arg-Trp-Lys)-NH2]
For the pair A and B , which member has the lower EC50, cAMP, 0.1 ng/mL Doxycycline number? // respond with label for picked entry
A
(A: 3 nM, B: 191 nM)
